In this section, each of the substances is paired with its reported % ATP at 5 μM, RBC lysis assay.
system: human red blood cells; test: ATP release from red blood cells; type: cell-based; conditions: pH 7.5; 5 μM peptide, human RBCs, 37 °C, ATPLite kit on supernatant

// known answers, use as guide
substance: WSDLAQA LSDLAQA LSDLAQA LSDLAQA [PSPF-DQA]
tested_system: human red blood cells
% ATP at 5 μM, RBC lysis assay: 3.81 % relative to Triton X-100 controls

substance: WSHLAQA LSHLAQA LSHLAQA LSHLAQA [PSPF-HQA]
tested_system: human red blood cells
% ATP at 5 μM, RBC lysis assay: 6.17 % relative to Triton X-100 controls

substance: WSELAQG LSELAQG LSELAQG LSELAQG [PSPF-EQG]
tested_system: human red blood cells
% ATP at 5 μM, RBC lysis assay: 3.36 % relative to Triton X-100 controls

Please report % ATP at 5 μM, RBC lysis assay for the following substance: WSELAKG LSELAKG LSELAKG LSELAKG [PSPF-EKG]
3.38 % relative to Triton X-100 controls

Please report % ATP at 5 μM, RBC lysis assay for the following substance: WSHLAKG LSHLAKG LSHLAKG LSHLAKG [PSPF-HKG]
32.1 % relative to Triton X-100 controls

Please report % ATP at 5 μM, RBC lysis assay for the following substance: WSELAQA LSELAQA LSELAQA LSELAQA [PSPF-EQA]
3.69 % relative to Triton X-100 controls

Please report % ATP at 5 μM, RBC lysis assay for the following substance: WSHLAKA LSHLAKA LSHLAKA LSHLAKA [PSPF-HKA]
0.93 % relative to Triton X-100 controls

The origin of these recorded values is paper PMC4843813.
